Tested on: NCI-H358
Assay: relative viability (nuclei count vs DMSO), 5 days (fraction); higher = more cells survive
Conditions: first compound 1.265 µM

compound	target.or.test.system	relative viability
O=C(O)c1ccc(-c2c[nH]c3ncc(-c4ccccc4)cc23)cc1C1CCCC1 + Cc1nc(Nc2ncc(C(=O)Nc3c(C)cccc3Cl)s2)cc(N2CCN(CCO)CC2)n1 [Dasatinib] (partner 0.075 µM)	NCI-H358	0.152
O=C(O)c1ccc(-c2c[nH]c3ncc(-c4ccccc4)cc23)cc1C1CCCC1 + N=C(N)NC(=N)NCCc1ccccc1 [Phenformin] (partner 250 µM)	NCI-H358	0.124
O=C(O)c1ccc(-c2c[nH]c3ncc(-c4ccccc4)cc23)cc1C1CCCC1 + Nc1nc2[nH]cc(CCc3ccc(C(=O)N[C@@H](CCC(=O)O)C(=O)O)cc3)c2c(=O)[nH]1 [Pemetrexed] (partner 0.2 µM)	NCI-H358	0.148
O=C(O)c1ccc(-c2c[nH]c3ncc(-c4ccccc4)cc23)cc1C1CCCC1 + COc1cccc2cc(-c3nc([C@H]4CC[C@H](C(=O)O)CC4)n4ncnc(N)c34)[nH]c12 [OSI-027] (partner 0.5 µM)	NCI-H358	0.359
O=C(O)c1ccc(-c2c[nH]c3ncc(-c4ccccc4)cc23)cc1C1CCCC1 + Cc1nc(NC(=O)N2CCC[C@H]2C(N)=O)sc1-c1ccnc(C(C)(C)C(F)(F)F)c1 [Alpelisib] (partner 2 µM)	NCI-H358	0.381
O=C(O)c1ccc(-c2c[nH]c3ncc(-c4ccccc4)cc23)cc1C1CCCC1 + C[C@@H](Oc1cc(-c2cnn(C3CCNCC3)c2)cnc1N)c1c(Cl)ccc(F)c1Cl [Crizotinib] (partner 1 µM)	NCI-H358	0.352
O=C(O)c1ccc(-c2c[nH]c3ncc(-c4ccccc4)cc23)cc1C1CCCC1 + Cc1cc(Nc2cc(N3CCN(C)CC3)nc(Sc3ccc(NC(=O)C4CC4)cc3)n2)n[nH]1 [Tozasertib] (partner 0.1 µM)	NCI-H358	0.0978
